Where do the numbers come from? From patent US20230381328A1.

biological target: monoclonal antibody mAB 198; assay: peptide microarray, fluorescence, cyclic peptide
Where no end group is shown, it is not given here.
# key: entry, value: relative signal [%]
Provide the reading as a plain figure in %.

Find the recorded relative signal [%] belonging to RPRWNPADY (also: cyclic peptide, ring type and places not given here) and report it. 12.4

For GSLRWNPADYN (also: cyclic peptide, mode of cyclisation not given here) , what is its reported relative signal [%]? 10

Any idea what its relative signal [%] is? The binder is DVRLRPNPADY (also: cyclic peptide, mode of cyclisation not given here) 21.3
